Molecular target: RSV F protein of recombinant mKate-RSV, subtype A (strain A2) (Respiratory syncytial virus subtype A …, UniProt P03420 26-574)
Experiment: cell-based or functional assay
measurement_name: Neut IC50 subtype A (µg/mL)
Give just the numeric value; µg/mL need not be written.

Recorded Neut IC50 subtype A for ADI-14494 (antibody, V domains shown, full-length IgG (yeast-expressed); also called Antibody Number 55; Ab# 55) VH: EVQLVESGGGVVQPGRSLRLSCAASGFTFSDHAMYWVRQAPGKGLEWVALISFDGRNIYYADSVKGRFTISRDNSKNTLYLQMNSLRAEDTAVYYCARDQWLVPDYWGQGTLVTVSS VL: QSALTQPASVSGSPGQSITISCTGTSSDVGGYNYVSWYQQHPGNAPKLMIYEVSKRPSGVPDRFSGFKSGNTASLTVSGLQAEDEADYYCSSYAGSNSVFGTGTKVTVL , please? 0.084

Also check ADI-14466 (antibody, V domains shown, full-length IgG (yeast-expressed); also called Antibody Number 29; Ab# 29) VH: QVQLVQSGAEAKKPGEPLRISCKGSGYTFSSYWISWVRQRPGERLEWMGRIDPSDSYAYSSPSFQGHVTFSADKSSNTAFLQWSSLQASDTAIYYCARHKENYDFWDFWGQGTMVTVSS VL: ETTLTQSPDSLAVSLGERATINCRSSQPILFNPINKLSLAWYQLKPGQPPKLLISWASTREPGVPDRFNGSGSGTVFTLTISSLQPEDVAVYVCQQYFTSTFFGPGTKVEIK 0.144
